Here, each record is paired with measured SILAC ratio, Tomm22 data.
# system: AEA-DA lipid probe targets in Neuro2a cells (Mus musculus)
# run-parameters: competitor 25 μM
Answer as a number with no unit attached.

Problem: Please tell me: SILAC ratio, Tomm22 of "CN1CCN(C(=O)c2[nH]c3ccc([N+](=O)[O-])cc3c2-c2ccccc2)CC1" , system AEA-DA lipid probe targets in Neuro2a cells (Mus musculus)?
Solution: 1.2

Problem: Please tell me: SILAC ratio, Tomm22 of O=C(/C=C/c1cccnc1)NCCCCC1CCN(C(=O)c2ccccc2)CC1 [FK-866, reference compound] , system AEA-DA lipid probe targets in Neuro2a cells (Mus musculus)?
Solution: 1.1

Next:
Problem: Please tell me: SILAC ratio, Tomm22 of "CN1CCN(C(=O)c2c(-c3ccccc3)c3cc([N+](=O)[O-])ccc3n2C)CC1" , system AEA-DA lipid probe targets in Neuro2a cells (Mus musculus)?
Solution: 1.3

Problem: Please tell me: SILAC ratio, Tomm22 of C=CCN(C)CCCCCCOc1ccc(C(=O)c2ccc(Br)cc2)c(F)c1 [Ro 48-8071, reference compound] , system AEA-DA lipid probe targets in Neuro2a cells (Mus musculus)?
Solution: 1.0

###

Here, each record is paired with measured SILAC ratio Dhcr7 data.
# system: AEA-DA lipid probe targets in Neuro2a cells (Mus musculus, UniProt O88455)
# Sequence (O88455 whole entry): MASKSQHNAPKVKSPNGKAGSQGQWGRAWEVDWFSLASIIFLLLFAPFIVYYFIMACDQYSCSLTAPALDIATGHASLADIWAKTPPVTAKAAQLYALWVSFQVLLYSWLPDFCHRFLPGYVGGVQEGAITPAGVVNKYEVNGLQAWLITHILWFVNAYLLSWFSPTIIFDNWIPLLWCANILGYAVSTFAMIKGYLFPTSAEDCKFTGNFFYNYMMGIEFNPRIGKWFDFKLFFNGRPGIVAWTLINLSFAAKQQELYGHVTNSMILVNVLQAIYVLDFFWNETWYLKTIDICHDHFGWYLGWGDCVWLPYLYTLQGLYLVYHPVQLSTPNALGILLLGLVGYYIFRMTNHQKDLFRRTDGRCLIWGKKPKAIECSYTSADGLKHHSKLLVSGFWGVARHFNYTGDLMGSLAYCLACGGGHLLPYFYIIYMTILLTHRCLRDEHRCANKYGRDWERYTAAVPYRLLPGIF
# run-parameters: competitor 25 μM

// below: answered compounds
Problem: I am curious: what SILAC ratio Dhcr7 value has been reported for CN1CCN(C(=O)c2c(-c3ccccc3)c3cc([N+](=O)[O-])ccc3n2C)CC1 [KML110] ?
Solution: 1.2

Problem: I am curious: what SILAC ratio Dhcr7 value has been reported for C=CCN(C)CCCCCCOc1ccc(C(=O)c2ccc(Br)cc2)c(F)c1 [Ro 48-8071, reference compound] ?
Solution: 0.8

Problem: I am curious: what SILAC ratio Dhcr7 value has been reported for CN1CCN(C(=O)c2[nH]c3ccc([N+](=O)[O-])cc3c2-c2ccccc2)CC1 [MJN228] ?
Solution: 1.2

Next:
Problem: I am curious: what SILAC ratio Dhcr7 value has been reported for O=C(/C=C/c1cccnc1)NCCCCC1CCN(C(=O)c2ccccc2)CC1 [FK-866, reference compound] ?
Solution: 0.9

###

# system: AEA-DA lipid probe targets in Neuro2a cells (Mus musculus, UniProt Q8BJ71)
# Sequence (Q8BJ71 whole entry): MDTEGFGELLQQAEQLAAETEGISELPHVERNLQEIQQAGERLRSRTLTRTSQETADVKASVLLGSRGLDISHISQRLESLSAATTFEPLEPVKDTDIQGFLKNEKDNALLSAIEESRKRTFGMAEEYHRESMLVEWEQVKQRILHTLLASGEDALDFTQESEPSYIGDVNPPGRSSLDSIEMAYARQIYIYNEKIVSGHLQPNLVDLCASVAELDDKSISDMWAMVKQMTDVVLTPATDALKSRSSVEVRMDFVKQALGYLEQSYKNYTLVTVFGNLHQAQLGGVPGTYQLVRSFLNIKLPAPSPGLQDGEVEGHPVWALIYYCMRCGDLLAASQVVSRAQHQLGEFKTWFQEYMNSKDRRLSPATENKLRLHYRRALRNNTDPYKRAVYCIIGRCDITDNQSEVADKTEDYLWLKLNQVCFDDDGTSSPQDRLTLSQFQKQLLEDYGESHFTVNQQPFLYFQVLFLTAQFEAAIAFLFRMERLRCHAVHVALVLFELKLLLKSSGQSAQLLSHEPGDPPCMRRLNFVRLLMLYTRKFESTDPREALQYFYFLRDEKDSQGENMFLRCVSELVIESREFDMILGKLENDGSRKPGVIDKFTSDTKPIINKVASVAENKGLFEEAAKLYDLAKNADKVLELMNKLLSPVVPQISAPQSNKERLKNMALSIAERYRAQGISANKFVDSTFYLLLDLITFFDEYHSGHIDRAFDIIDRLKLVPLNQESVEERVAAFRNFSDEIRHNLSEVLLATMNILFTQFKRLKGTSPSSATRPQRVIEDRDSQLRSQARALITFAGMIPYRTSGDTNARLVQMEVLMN
# run-parameters: competitor 25 μM
parameter-measured: SILAC ratio Nup93

Problem: I am curious: what SILAC ratio Nup93 value has been reported for "CN1CCN(C(=O)c2[nH]c3ccc([N+](=O)[O-])cc3c2-c2ccccc2)CC1" ?
Solution: 1.1

Problem: I am curious: what SILAC ratio Nup93 value has been reported for "CN1CCN(C(=O)c2c(-c3ccccc3)c3cc([N+](=O)[O-])ccc3n2C)CC1" ?
Solution: 1.4

Problem: I am curious: what SILAC ratio Nup93 value has been reported for O=C(/C=C/c1cccnc1)NCCCCC1CCN(C(=O)c2ccccc2)CC1 [FK-866, reference compound] ?
Solution: 1.2

Turning to the following compound.
Problem: I am curious: what SILAC ratio Nup93 value has been reported for C=CCN(C)CCCCCCOc1ccc(C(=O)c2ccc(Br)cc2)c(F)c1 [Ro 48-8071, reference compound] ?
Solution: 0.9

###

# system: AEA-DA lipid probe targets in Neuro2a cells (Mus musculus, UniProt Q9CZS1)
# Sequence (Q9CZS1 20-519): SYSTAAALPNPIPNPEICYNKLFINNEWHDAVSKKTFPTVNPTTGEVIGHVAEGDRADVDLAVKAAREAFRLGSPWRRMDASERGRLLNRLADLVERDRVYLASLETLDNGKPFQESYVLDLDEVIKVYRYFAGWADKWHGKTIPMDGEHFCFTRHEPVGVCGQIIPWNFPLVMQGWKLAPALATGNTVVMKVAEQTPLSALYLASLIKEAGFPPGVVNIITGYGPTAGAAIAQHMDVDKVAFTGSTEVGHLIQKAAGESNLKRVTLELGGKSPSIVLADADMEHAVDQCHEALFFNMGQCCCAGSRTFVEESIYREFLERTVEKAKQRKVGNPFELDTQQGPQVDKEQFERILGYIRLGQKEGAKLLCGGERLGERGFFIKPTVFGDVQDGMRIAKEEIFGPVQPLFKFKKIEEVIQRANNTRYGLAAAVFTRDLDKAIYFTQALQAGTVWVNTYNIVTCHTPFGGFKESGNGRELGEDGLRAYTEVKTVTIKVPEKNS
# run-parameters: competitor 25 μM
parameter-measured: SILAC ratio, Aldh1b1
Answer as a number with no unit attached.

Problem: I am curious: what SILAC ratio, Aldh1b1 value has been reported for C=CCN(C)CCCCCCOc1ccc(C(=O)c2ccc(Br)cc2)c(F)c1 [Ro 48-8071, reference compound] ?
Solution: 1.6

Next:
Problem: I am curious: what SILAC ratio, Aldh1b1 value has been reported for O=C(/C=C/c1cccnc1)NCCCCC1CCN(C(=O)c2ccccc2)CC1 [FK-866, reference compound] ?
Solution: 1.3

Problem: I am curious: what SILAC ratio, Aldh1b1 value has been reported for CN1CCN(C(=O)c2[nH]c3ccc([N+](=O)[O-])cc3c2-c2ccccc2)CC1 [MJN228] ?
Solution: 1.6

Problem: I am curious: what SILAC ratio, Aldh1b1 value has been reported for CN1CCN(C(=O)c2c(-c3ccccc3)c3cc([N+](=O)[O-])ccc3n2C)CC1 [KML110] ?
Solution: 1.7

###

Here, each record is paired with measured SILAC ratio Atp2b1 data.
# system: AEA-DA lipid probe targets in Neuro2a cells (Mus musculus, UniProt G5E829)
# Sequence (G5E829 whole entry): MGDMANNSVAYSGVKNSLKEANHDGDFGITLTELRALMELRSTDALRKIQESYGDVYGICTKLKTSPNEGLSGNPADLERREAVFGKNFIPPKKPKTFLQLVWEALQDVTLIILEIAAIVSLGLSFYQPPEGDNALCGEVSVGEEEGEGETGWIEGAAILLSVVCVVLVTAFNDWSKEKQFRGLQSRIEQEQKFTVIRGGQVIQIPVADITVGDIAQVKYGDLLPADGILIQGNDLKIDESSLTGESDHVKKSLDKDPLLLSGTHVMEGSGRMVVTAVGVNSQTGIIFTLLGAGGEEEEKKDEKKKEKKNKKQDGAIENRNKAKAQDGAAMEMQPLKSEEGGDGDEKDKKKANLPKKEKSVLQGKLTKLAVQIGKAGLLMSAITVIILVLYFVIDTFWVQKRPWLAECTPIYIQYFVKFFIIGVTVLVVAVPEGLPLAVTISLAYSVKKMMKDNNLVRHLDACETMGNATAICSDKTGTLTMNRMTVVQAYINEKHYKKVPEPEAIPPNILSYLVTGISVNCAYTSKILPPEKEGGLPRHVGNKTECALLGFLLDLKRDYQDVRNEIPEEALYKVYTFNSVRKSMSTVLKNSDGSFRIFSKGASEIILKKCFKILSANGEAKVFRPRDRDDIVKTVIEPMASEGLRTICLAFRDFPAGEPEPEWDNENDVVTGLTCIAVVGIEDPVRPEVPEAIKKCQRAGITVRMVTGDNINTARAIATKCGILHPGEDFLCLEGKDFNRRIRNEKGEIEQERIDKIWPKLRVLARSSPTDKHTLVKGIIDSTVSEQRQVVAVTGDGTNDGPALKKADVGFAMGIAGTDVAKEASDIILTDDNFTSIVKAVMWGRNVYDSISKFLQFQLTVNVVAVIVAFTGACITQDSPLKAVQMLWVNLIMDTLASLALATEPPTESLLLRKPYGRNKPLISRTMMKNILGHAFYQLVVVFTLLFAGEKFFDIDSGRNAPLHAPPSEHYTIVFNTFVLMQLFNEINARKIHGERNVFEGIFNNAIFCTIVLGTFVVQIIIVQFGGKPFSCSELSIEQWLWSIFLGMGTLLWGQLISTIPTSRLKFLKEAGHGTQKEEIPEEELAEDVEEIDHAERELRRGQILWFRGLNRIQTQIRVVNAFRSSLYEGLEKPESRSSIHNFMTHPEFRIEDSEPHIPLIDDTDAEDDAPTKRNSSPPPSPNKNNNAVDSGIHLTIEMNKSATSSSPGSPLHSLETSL
# run-parameters: competitor 25 μM
Answer as a number with no unit attached.

Problem: I am curious: what SILAC ratio Atp2b1 value has been reported for O=C(/C=C/c1cccnc1)NCCCCC1CCN(C(=O)c2ccccc2)CC1 [FK-866, reference compound] ?
Solution: 1.2

Next:
Problem: I am curious: what SILAC ratio Atp2b1 value has been reported for CN1CCN(C(=O)c2[nH]c3ccc([N+](=O)[O-])cc3c2-c2ccccc2)CC1 [MJN228] ?
Solution: 1.4

Problem: I am curious: what SILAC ratio Atp2b1 value has been reported for CN1CCN(C(=O)c2c(-c3ccccc3)c3cc([N+](=O)[O-])ccc3n2C)CC1 [KML110] ?
Solution: 1.8

Problem: I am curious: what SILAC ratio Atp2b1 value has been reported for C=CCN(C)CCCCCCOc1ccc(C(=O)c2ccc(Br)cc2)c(F)c1 [Ro 48-8071, reference compound] ?
Solution: 1.1

###

Here, each record is paired with measured SILAC ratio Psap data.
# system: AEA-DA lipid probe targets in Neuro2a cells (Mus musculus)
# run-parameters: competitor 25 μM
Answer as a number with no unit attached.

// below: answered compounds
Problem: I am curious: what SILAC ratio Psap value has been reported for "CN1CCN(C(=O)c2c(-c3ccccc3)c3cc([N+](=O)[O-])ccc3n2C)CC1" ?
Solution: 1.3

Problem: I am curious: what SILAC ratio Psap value has been reported for O=C(/C=C/c1cccnc1)NCCCCC1CCN(C(=O)c2ccccc2)CC1 [FK-866, reference compound] ?
Solution: 1.0

Problem: I am curious: what SILAC ratio Psap value has been reported for C=CCN(C)CCCCCCOc1ccc(C(=O)c2ccc(Br)cc2)c(F)c1 [Ro 48-8071, reference compound] ?
Solution: 1.0

Turning to the following compound.
Problem: I am curious: what SILAC ratio Psap value has been reported for "CN1CCN(C(=O)c2[nH]c3ccc([N+](=O)[O-])cc3c2-c2ccccc2)CC1" ?
Solution: 1.4

###

Here, each record is paired with measured SILAC ratio, Tmem165 data.
# system: AEA-DA lipid probe targets in Neuro2a cells (Mus musculus, UniProt P52875)
# Sequence (P52875 34-323): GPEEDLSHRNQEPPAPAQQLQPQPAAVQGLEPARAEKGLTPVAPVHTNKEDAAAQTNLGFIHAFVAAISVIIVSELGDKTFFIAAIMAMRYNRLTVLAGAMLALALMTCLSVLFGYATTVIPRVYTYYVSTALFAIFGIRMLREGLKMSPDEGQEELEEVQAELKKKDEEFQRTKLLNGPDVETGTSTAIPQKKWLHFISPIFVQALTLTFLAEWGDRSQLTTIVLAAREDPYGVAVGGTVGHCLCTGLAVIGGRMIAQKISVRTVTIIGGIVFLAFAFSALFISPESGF
# run-parameters: competitor 25 μM
Answer as a number with no unit attached.

// below: answered molecules
Problem: I am curious: what SILAC ratio, Tmem165 value has been reported for O=C(/C=C/c1cccnc1)NCCCCC1CCN(C(=O)c2ccccc2)CC1 [FK-866, reference compound] ?
Solution: 1.1

Problem: I am curious: what SILAC ratio, Tmem165 value has been reported for CN1CCN(C(=O)c2[nH]c3ccc([N+](=O)[O-])cc3c2-c2ccccc2)CC1 [MJN228] ?
Solution: 1.2

Problem: I am curious: what SILAC ratio, Tmem165 value has been reported for CN1CCN(C(=O)c2c(-c3ccccc3)c3cc([N+](=O)[O-])ccc3n2C)CC1 [KML110] ?
Solution: 1.5

Turning to the following molecule.
Problem: I am curious: what SILAC ratio, Tmem165 value has been reported for C=CCN(C)CCCCCCOc1ccc(C(=O)c2ccc(Br)cc2)c(F)c1 [Ro 48-8071, reference compound] ?
Solution: 1.1
